System: CU-ACC1
Experiment: area under concentration-response curve (viability) (AUC (a.u.)); higher = less active
Conditions: 48 h
Provide the recorded area under concentration-response curve for the entries that follow.
Answer as a number with no unit attached.

Q: Name the recorded area under concentration-response curve of the molecule listed here: `N[S+](=O)([O-])c1ccc(Cc2c(-c3cccc(-c4ccccc4)c3)nn(-c3nc(C(=O)O)cs3)c2CC2CC2)cc1`
Result: 373

Q: Name the recorded area under concentration-response curve of the molecule listed here: `C[C@]12C[C@H](O)[C@H]3[C@@H](CC\C4=C\C(=O)\C=C/[C@]34C)[C@@H]1CC[C@]2(O)C(=O)CO`
Result: 496

Q: Name the recorded area under concentration-response curve of the molecule listed here: `C[C@H](NC(=O)[C@@H](O)c1cc(F)cc(F)c1)C(=O)N[C@@H]1C(=O)N(C)c2ccccc2-c2ccccc21`
Result: 381

Q: Name the recorded area under concentration-response curve of the molecule listed here: CC1SC/2=C(C(O)=O)/C(=O)C3=CC(=C(C=C3N12)N4CCN(CC4)C\C5=C(C)\OC(=O)O5)F (configuration not stated)
Result: 586

Q: Name the recorded area under concentration-response curve of the molecule listed here: `Cc1cc(C[S+](=O)([O-])c2ccccc2)cc(OCc2ccc(CN3CCC[C@@H]3CO)cc2)c1`
Result: 428

Q: Name the recorded area under concentration-response curve of the molecule listed here: `CN(C)C/C=C/C(=O)Nc1ccc(C(=O)N2CCC[C@@H](Nc3ncc(Cl)c(-c4c[nH]c5ccccc45)n3)C2)cc1`
Result: 399

Q: Name the recorded area under concentration-response curve of the molecule listed here: `CO[C@@H]1COCC[C@@H]1N[C@@H]1CC[C@@](C(=O)N2CCc3ncc(C(F)(F)F)cc3C2)(C(C)C)C1`
Result: 591

###

System: CU-ACC2
Test: area under concentration-response curve (viability) (AUC (a.u.)); higher = less active
Conditions: 48 h
Provide the recorded area under concentration-response curve for the entries that follow.

Q: Provide area under concentration-response curve, system CU-ACC2, entry `CCNC(=O)C[C@@H]1\N=C(C2=CC=C(Cl)C=C2)/C3=C(C=CC(=C3)OC)[N]4C(=NN=C14)C`
Result: 500

Q: Provide area under concentration-response curve, system CU-ACC2, entry CC[C@@H]([C@H](C)O)N1\N=C/N(C1=O)C2=CC=C(C=C2)N3CCN(CC3)C4=CC=C(OCC5CO[C@@](C5)(C[N]6C=NC=N6)C7=C(F)C=C(F)C=C7)C=C4 (stereo partly drawn)
Result: 447

Q: Provide area under concentration-response curve, system CU-ACC2, entry `Cc1cc(-c2ncc(CC(=O)Nc3ccc(-c4cnccn4)cn3)cc2C)ccn1`
Result: 597

Q: Provide area under concentration-response curve, system CU-ACC2, entry `COc1cc2ncn(-c3cc(OCc4ccccc4[S+](C)(=O)[O-])c(C#N)s3)c2cc1OC`
Result: 399

Q: Provide area under concentration-response curve, system CU-ACC2, entry `Cc1c(F)cc(C(=O)NC2CC2)cc1-c1c(F)cn2c(C(C)(C)C)nnc2c1F`
Result: 507

Q: Provide area under concentration-response curve, system CU-ACC2, entry `O=C(c1ccc(Nc2nc(C3CC3)cn3c(-c4cn[nH]c4)cnc23)c(F)c1)N1CCOCC1`
Result: 343

Q: Provide area under concentration-response curve, system CU-ACC2, entry `CCC\C1=C\C(=O)NC(=S)N1`
Result: 545

Q: Provide area under concentration-response curve, system CU-ACC2, entry `CO/C1=C/C(C)=C\[C@@H](C)[C@@H](O)[C@@H](C)C/C(C)=C\C=C/[C@H](OC)[C@@H]([C@@H](C)[C@@H](O)[C@H](C)[C@@]2(O)C[C@@H](O)[C@H](C)[C@@H](C(C)C)O2)OC1=O`
Result: 365
